test_protocol: Pharmacokinetic study in male ICR mice
Assay type: in vivo
experimental_parameters: male, ICR, plasma; mouse, PO 5 mg/kg
Procedure: Twelve healthy male ICR mice (6 weeks old, 27.5–30.5 g) and 10 healthy male Sprague–Dawley (SD) rats (7 weeks old, 195.5–212.0 g) were acquired from Orient Bio Inc. (Seongnam, Republic of Korea) and used for PK studies. […] The collected plasma samples from mice or rats (20 µL) were added with IS (20 µL) and ACN (160 µL). […] PK parameters were calculated using Phoenix® 8.3 software (Certara L.P., Princeton, NJ, USA), as described previously.
parameter: MRT (h)
Give bare numbers, in h.

### Prompt Param item = `O=C1CC[C@H](N2Cc3cc(N4CCN(CC5CCN(c6ccc([C@@H]7c8ccc(O)cc8CC[C@@H]7c7ccccc7)cc6)CC5)CC4)ccc3C2=O)C(=O)N1` ; retrieve measured MRT.
### Response 5.58
